Consider the following compounds and their measured inhibition readings.
Target: Autotaxin (Homo sapiens, UniProt Q13822)
Test: Inhibition of C-terminal FLAG-tagged human recombinant autotaxin using synthetic substrate FS-3 at 10 uM measured every 2 mins by FRET assay relative to control
Unit % implied. Number only.

Reference set (6 entries):
> print(dat)
                                   compound  unit.string  observed.result
1  CC(C)C1C(=O)Nc2cc(S(=O)(=O)NCc3ccccc3)ccc2N1C(=O)CN1CCCCC1 (centres undefined)            %             62.3
2  CC(C)c1ccc(OCC(=O)N2CCN(c3ncccc3C(=O)N3CCCC3C(N)=O)CC2C)cc1 (centres undefined)            %               30
3  COc1ccc(-c2cc(C(=O)NCCC(=O)NCc3ccccc3OC)c3ccccc3n2)cc1            %               20
4  Cc1cc(C)cc(CC(=O)N2CCC(CCCC3CCN(c4ccc(C(=O)NC(C(N)=O)C(C)O)cn4)CC3)CC2)c1 (centres undefined)            %             83.2
5  CCn1c2ccccc2c2cc(/C=C3\SC(=S)N([C@H](Cc4ccccc4)C(=O)O)C3=O)ccc21            %                0
6  CC(C)c1ccc(OCC(=O)N2CCN(c3ccc(C(=O)N4CCCC4C(N)=O)cn3)CC2C)cc1 (centres undefined)            %             88.5

Observed inhibition on Autotaxin (Homo sapiens, UniProt Q13822) for CCc1cc2c(cc3c(=O)n(CCCC(=O)NCc4ccc(OC(C)C)cc4)ncn32)s1 , please. 20

Observed inhibition on Autotaxin (Homo sapiens, UniProt Q13822) for COc1ccc(CNC(=O)C(C)(C)NC(=O)c2cc(-c3ccoc3)nc3ccccc23)c(OC)c1 , please. 10

Observed inhibition on Autotaxin (Homo sapiens, UniProt Q13822) for N#CC1CCCC(NC(=O)c2cccc(S(=O)(=O)Nc3ccc(Br)cc3)c2)C1 (centres undefined) , please. 0

* * *

Biological target: UniProt Q13822
Experiment: Inhibition of C-terminal FLAG-tagged human recombinant autotaxin using synthetic substrate FS-3 at 10 uM measured every 2 mins by FRET assay relative to control
Consider the following compounds and their measured inhibition readings.
Unit % implied. Number only.

> print(dat)
                                   compound  unit.string  observed.result
1  CCOC(=O)C(=O)NCC1CCC(c2cc3n(n2)CCN3S(=O)(=O)c2cccc(Cl)c2)CC1 (stereo not drawn)            %               20

Entry under review: CCCCCOc1ccc(/N=C2\C=C(O)C(=O)c3ccccc32)cc1 . Reported inhibition? 20

Entry under review: COc1ccccc1/C=C1\SC(=O)N(CCC(=O)N2c3ccccc3Sc3ccc(Cl)cc32)C1=O . Reported inhibition? 30

* * *

Test system: A2058
Assay: Reduction of lysophosphatidyl choline-induced cell migration in human A2058 cells at 30 uM after 4 to 48 hrs by monolayer scratch assay
Assay type: functional
Design: scale not given: the % may be the effect or the level left
Consider the following compounds and their measured Activity readings.
Unit % implied. Number only.

> print(dat)
                                   compound  observed.result
1  CC1CN(c2ccc(C(=O)N3CCCC3C(N)=O)cn2)CCC1C(=O)COc1cccc2ccccc12 (centres undefined)               24
2  CC(O)C(NC(=O)c1ccc(N2CCC(CCCC3CCN(C(=O)CCC(=O)c4ccccc4)CC3)CC2)nc1)C(N)=O (centres undefined)               28
3  CC(C)c1ccc(OCC(=O)N2CCN(c3ccc(C(=O)N4CCCC4C(N)=O)cn3)CC2C)cc1 (centres undefined)               35

Then there is this compound:
Entry under review: COc1cc(C2CC(=O)NC(SCC(=O)Nc3ccc(Br)cc3)=C2C#N)ccc1O (centres undefined) . Reported Activity? 59
